# Test system: Ba/F3 cells expressing EGFR mutations
# experiment_summary: Cell proliferation assay, Ba/F3 cells expressing EGFR mutations (CellTiter-Glo, 72 hours)
# Format: cell-based
# condition_description: BaF3 cells, EGFR DEL19-T790-C797S, CellTiter-Glo, read-out: DEL19-T790-C797S/BaF3 GI50
What log10 of GI50 was measured for each of the following?
Hi team, quick reminder: these entries are log10 of GI50 (nM).

QUERY: Look up log10 of GI50 with Ba/F3 cells expressing EGFR mutations for this compound: CN1CCC2(CCN(c3ccc4nc5n(c4c3)C34CCC(CN(CCOc6c(cnn6C)-c6cc(cn(C)c6=O)C(=O)N5)C3)C4)C2)C1 (single isomer, unassigned) [Example A81B]
RESULT: 0.45

QUERY: Next compound: CN(C)CCCN(C)c1ccc2nc3n(c2c1)C12CCC(CN(CCOc4c(cnn4C)-c4cc(cn(C)c4=O)C(=O)N3)C1)C2 (single isomer, unassigned) [Example A89A]
RESULT: 2.25

QUERY: Next compound: CCN1CCN(c2ccc3nc4n(c3c2)C23CCC(CN(CCOc5c(cnn5C)-c5cc(cn(C)c5=O)C(=O)N4)C2)C3)CC1 (single isomer, unassigned) [Example A107B]
RESULT: 0.04

QUERY: Next compound: CN(C)C1CN(c2ccc3nc4n(c3c2)C23CCC(CN(CCOc5c(cnn5C)-c5cc(cn(C)c5=O)C(=O)N4)C2)C3)CC1F (single isomer, unassigned) [Example A84C]
RESULT: 0.32

QUERY: Next compound: CN1CCC2(CCN(c3ccc4nc5n(c4c3)C34CCC(CN(CCOc6c(cnn6C)-c6cc(cn(C)c6=O)C(=O)N5)C3)C4)CC2)C1 (single isomer, unassigned) [Example A82A]
RESULT: 2.27

QUERY: Next compound: CN1C2CC1CN(c1ccc3nc4n(c3c1)C13CCC(CN(CCOc5c(cnn5C)-c5cc(cn(C)c5=O)C(=O)N4)C1)C3)C2 (single isomer, unassigned) [Example A98A]
RESULT: 2.53

QUERY: Next compound: CN1CCN(c2ccc3nc4n(c3c2)C23CCC(CN(CCOc5c(cnn5C)-c5cc(cn(C)c5=O)C(=O)N4)C2)C3)CC1 (single isomer, unassigned) [Example A63A]
RESULT: 2.73

QUERY: Next compound: CN1CC2(CCN(c3ccc4nc5n(c4c3)C34CCC(CN(CCOc6c(cnn6C)-c6cc(cn(C)c6=O)C(=O)N5)C3)C4)C2)C1 (single isomer, unassigned) [Example A73A]
RESULT: 2.48

QUERY: Next compound: CN1CCN(c2ccc3c(c2)nc2n3C34CCC(CN(CCOc5c(cnn5C)-c5cc(cn(C)c5=O)C(=O)N2)C3)C4)CC1 (centres unmarked) [Example A60B]
RESULT: 0.64

QUERY: Next compound: Cn1ncc2c1OCCN1CC3CCC(C3)(C1)n1c(nc3ccc(N4CCOCC4)cc31)NC(=O)c1cc-2c(=O)n(C)c1 (centres unmarked) [Example A62]
RESULT: 0.72

QUERY: Next compound: CN1CCC2(CC1)CCN(c1ccc3nc4n(c3c1)C13CCC(CN(CCOc5c(cnn5C)-c5cc(cn(C)c5=O)C(=O)N4)C1)C3)C2 (single isomer, unassigned) [Example A88A]
RESULT: 2.20
